# Tested on: biotinyl-Phe-oxazolone
# assay comment: self-aminoacylation, catalytic enhancement (BFO) (fold over background); higher = more active; k-Seq, kA / k0A0; sequences stand for … in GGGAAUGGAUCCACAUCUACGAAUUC…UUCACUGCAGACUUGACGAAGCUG
Variants at the floor of the assay were thinned out.
quantity kind: self-aminoacylation

item_sequence="AGUCCCCUAGGUCAUCGGGUG [Fam2.2 aminoacylation ribozyme variant]" endpoint_result=93.9
item_sequence="CCACGCUUCAAGCAAUCAGUC [Fam1B.1 aminoacylation ribozyme variant]" endpoint_result=27.4
item_sequence="AUUCUCCUAGGUCAUCGGAUG [Fam2.2 aminoacylation ribozyme variant]" endpoint_result=0.611
item_sequence="CCACACUUCAAGCACUCGGUC [Fam1B.1 aminoacylation ribozyme variant]" endpoint_result=0.887
item_sequence="CGACACUUCAAGCAAUUGGUC [Fam1B.1 aminoacylation ribozyme variant]" endpoint_result=0.985
item_sequence="CUACACUUCAAACAAUCGGUC [Fam1B.1 aminoacylation ribozyme variant]" endpoint_result=88.2
item_sequence="AAAUGUGCUAAUAGUCGCAAG [Fam3.1 aminoacylation ribozyme variant]" endpoint_result=2.84
item_sequence="AAGAUUGCUAAUAGUCGCAAU [Fam3.1 aminoacylation ribozyme variant]" endpoint_result=2.37
item_sequence="CCACACUUCAUGCAAUCGGGC [Fam1B.1 aminoacylation ribozyme variant]" endpoint_result=0.961
item_sequence="CUAGUUCAAACAAUCGGCCUG [Fam1A.1 aminoacylation ribozyme variant]" endpoint_result=12.4
item_sequence="CGACUUCAAACAGUCGGUCUG [Fam1A.1 aminoacylation ribozyme variant]" endpoint_result=10
item_sequence="CUACUUCACUCAAUCGGUCUG [Fam1A.1 aminoacylation ribozyme variant]" endpoint_result=0.865
item_sequence="CUACUUCAAACCAUCGCUCUG [Fam1A.1 aminoacylation ribozyme variant]" endpoint_result=0.394
item_sequence="CUAUUUCAAACAGUCGGUCUG [Fam1A.1 aminoacylation ribozyme variant]" endpoint_result=0.588
item_sequence="CUUCUUCAAACAAUCGGUCUU [Fam1A.1 aminoacylation ribozyme variant]" endpoint_result=13.4
item_sequence="AAGUUCGCUAAUAGUCGCAAG [Fam3.1 aminoacylation ribozyme variant]" endpoint_result=6.36
item_sequence="CUACUUCAAACAAUCAGUAUG [Fam1A.1 aminoacylation ribozyme variant]" endpoint_result=6.02
item_sequence="AAGCUUGCUGAUAGUCGCAAG [Fam3.1 aminoacylation ribozyme variant]" endpoint_result=4.23
item_sequence="CCACACUUCCAGCAAUCGGCC [Fam1B.1 aminoacylation ribozyme variant]" endpoint_result=3.34
item_sequence="CUACUUCAUACAAACGGUCUG [Fam1A.1 aminoacylation ribozyme variant]" endpoint_result=1.06
item_sequence="CUACUUGAAACAAUCCGUCUG [Fam1A.1 aminoacylation ribozyme variant]" endpoint_result=0.462
item_sequence="CUACUGCAAACAACCGGUCUG [Fam1A.1 aminoacylation ribozyme variant]" endpoint_result=2.5
item_sequence="GUUCACCUAGGUCAUCAGGUG [Fam2.2 aminoacylation ribozyme variant]" endpoint_result=2.03
item_sequence="AUUAACCUGGUCAUCGAGUGC [Fam2.1 aminoacylation ribozyme variant]" endpoint_result=0.898
item_sequence="CUACUCCAAACAAUCGGUUUG [Fam1A.1 aminoacylation ribozyme variant]" endpoint_result=2.1
item_sequence="AAGUUUGCUAAAAGUCUCAAG [Fam3.1 aminoacylation ribozyme variant]" endpoint_result=4.24
item_sequence="AAGUUUGCUAAGAGUUGCAAG [Fam3.1 aminoacylation ribozyme variant]" endpoint_result=0.74

* * *

# Tested on: biotinyl-Met-oxazolone
# assay comment: self-aminoacylation, catalytic enhancement (BMO) (fold over background); higher = more active; k-Seq, kA / k0A0; sequences stand for … in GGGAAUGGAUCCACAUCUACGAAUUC…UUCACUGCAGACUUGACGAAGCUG
Fewer inactive variants are shown than the library holds.
We use 7 as the dividing line for self-aminoacylation: on or above the line is 1.0, below is 0.0.

item_sequence="AUUCACCGAAGUCAUCGGGUG [Fam2.2 aminoacylation ribozyme variant]" experimental_target=biotinyl-Met-oxazolone classification=1.0
item_sequence="CCACCCUUCAAGCAAUCGCUC [Fam1B.1 aminoacylation ribozyme variant]" experimental_target=biotinyl-Met-oxazolone classification=0.0
item_sequence="AAGUUUGCCAAUAGUCACAAG [Fam3.1 aminoacylation ribozyme variant]" experimental_target=biotinyl-Met-oxazolone classification=0.0
item_sequence="AUUCGCCUAGGUCAUCGGAUG [Fam2.2 aminoacylation ribozyme variant]" experimental_target=biotinyl-Met-oxazolone classification=0.0

* * *

# Tested on: biotinyl-Phe-oxazolone
# assay comment: self-aminoacylation, catalytic enhancement (BFO) (fold over background); higher = more active; k-Seq, kA / k0A0; sequences stand for … in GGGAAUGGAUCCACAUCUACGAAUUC…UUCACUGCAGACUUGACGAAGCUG
This sample holds only a part of the variants without activity.
quantity kind: self-aminoacylation

item_sequence="AAUCACCUGGGUCAUCGGGUG [Fam2.2 aminoacylation ribozyme variant]" endpoint_result=31.9
item_sequence="CUACUUCAAACAAUCCGUGUG [Fam1A.1 aminoacylation ribozyme variant]" endpoint_result=7.45
item_sequence="AAGGUUACUAAUAGUCGCAAG [Fam3.1 aminoacylation ribozyme variant]" endpoint_result=2.19
item_sequence="AUUCAUCUAGGUCAUCGGGUG [Fam2.2 aminoacylation ribozyme variant]" endpoint_result=39.2
item_sequence="ACCCACUUCAAGCAAUCGGUC [Fam1B.1 aminoacylation ribozyme variant]" endpoint_result=23.3
item_sequence="CCGCACUACAAGCAAUCGGUC [Fam1B.1 aminoacylation ribozyme variant]" endpoint_result=1.55
item_sequence="CCACACUUCAAGCAUUCGCUC [Fam1B.1 aminoacylation ribozyme variant]" endpoint_result=2.04
item_sequence="ACACACCUAGGUCAUCGGGUG [Fam2.2 aminoacylation ribozyme variant]" endpoint_result=19
item_sequence="CCACACUUCAAGCAAUCGCUG [Fam1B.1 aminoacylation ribozyme variant]" endpoint_result=0.653
item_sequence="AAUUAUGCUAAUAGUCGCAAG [Fam3.1 aminoacylation ribozyme variant]" endpoint_result=3.25
item_sequence="CGACUUCAAACAAUCGAUCUG [Fam1A.1 aminoacylation ribozyme variant]" endpoint_result=3.21
item_sequence="CCACUUCAAAUAAUCGGUCUG [Fam1A.1 aminoacylation ribozyme variant]" endpoint_result=17.9
item_sequence="AUUACCCUGGUCAUCGGGUGG [Fam2.1 aminoacylation ribozyme variant]" endpoint_result=395
item_sequence="AAGUUCCCUAAUAGUCGCAAG [Fam3.1 aminoacylation ribozyme variant]" endpoint_result=0.485
item_sequence="AAGUUUGCUAAUAGUCGUAAC [Fam3.1 aminoacylation ribozyme variant]" endpoint_result=1.02
item_sequence="CCACACCUCAAUCAAUCGGUC [Fam1B.1 aminoacylation ribozyme variant]" endpoint_result=3.88

* * *

Reported values of self-aminoacylation for individual entries
# Tested on: biotinyl-Val-oxazolone
# assay comment: self-aminoacylation, catalytic enhancement (BVO) (fold over background); higher = more active; k-Seq, kA / k0A0; sequences stand for … in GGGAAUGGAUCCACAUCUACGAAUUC…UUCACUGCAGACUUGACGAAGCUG
This sample holds only a part of the variants without activity.
quantity kind: self-aminoacylation

item_sequence="CCACACUUCAAGGAAUCGGCC [Fam1B.1 aminoacylation ribozyme variant]" experimental_target=biotinyl-Val-oxazolone endpoint_result=2.4
item_sequence="CUACUUGAAACAAUCCGUCUG [Fam1A.1 aminoacylation ribozyme variant]" experimental_target=biotinyl-Val-oxazolone endpoint_result=0.836
item_sequence="CCACACCUCAAGCAAUUGGUC [Fam1B.1 aminoacylation ribozyme variant]" experimental_target=biotinyl-Val-oxazolone endpoint_result=0.754
item_sequence="AUUACCCGGGCCAUCGAGUGA [Fam2.1 aminoacylation ribozyme variant]" experimental_target=biotinyl-Val-oxazolone endpoint_result=5.47

* * *

# Test system: biotinyl-Met-oxazolone
# assay comment: self-aminoacylation, catalytic enhancement (BMO) (fold over background); higher = more active; k-Seq, kA / k0A0; sequences stand for … in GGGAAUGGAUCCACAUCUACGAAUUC…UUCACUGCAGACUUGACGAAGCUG
Variants at the floor of the assay were thinned out.
Reported values of self-aminoacylation for individual entries
quantity kind: self-aminoacylation

item_sequence="AUUCACCUGGGUCAUCCGGUG [Fam2.2 aminoacylation ribozyme variant]" experimental_target=biotinyl-Met-oxazolone endpoint_result=11.2
item_sequence="CCACACUUCGAGCAAUCAGUC [Fam1B.1 aminoacylation ribozyme variant]" experimental_target=biotinyl-Met-oxazolone endpoint_result=0.488
item_sequence="AUUCCCCUGGCCAUCGAGUGA [Fam2.1 aminoacylation ribozyme variant]" experimental_target=biotinyl-Met-oxazolone endpoint_result=6.17
item_sequence="CCACACUUCGAGCAAACGGUC [Fam1B.1 aminoacylation ribozyme variant]" experimental_target=biotinyl-Met-oxazolone endpoint_result=0.663
item_sequence="CUACGUCAAACUAUCGGUCUG [Fam1A.1 aminoacylation ribozyme variant]" experimental_target=biotinyl-Met-oxazolone endpoint_result=1.95
item_sequence="CUACUUCAAACAAACGGUCUG [Fam1A.1 aminoacylation ribozyme variant]" experimental_target=biotinyl-Met-oxazolone endpoint_result=0.664
item_sequence="CUUUCCCUGGUCAUCGAGUGA [Fam2.1 aminoacylation ribozyme variant]" experimental_target=biotinyl-Met-oxazolone endpoint_result=8.78
item_sequence="AUUCACCUCGGUCAUCGGGUU [Fam2.2 aminoacylation ribozyme variant]" experimental_target=biotinyl-Met-oxazolone endpoint_result=2.44
item_sequence="CCACACUCGAAGCAAUCGGUC [Fam1B.1 aminoacylation ribozyme variant]" experimental_target=biotinyl-Met-oxazolone endpoint_result=1.1
item_sequence="AUUCACCCAGGUCAUCGGGGG [Fam2.2 aminoacylation ribozyme variant]" experimental_target=biotinyl-Met-oxazolone endpoint_result=2.1
item_sequence="AGUACCCGGGUCAUCGAGUGA [Fam2.1 aminoacylation ribozyme variant]" experimental_target=biotinyl-Met-oxazolone endpoint_result=7.25

Values were extracted from the supplement of paper PMC9233669.
